Molecular target: T1, cynomolgus GPC3 on stably transfected SK-HEP-1 cells (cynomolgus, UniProt A0A2K5VK50 24-553)
T1 construct: whole, on cells; also called SK-HEP-1::cyno GPC3; SK-HEP-1::cynomolugus GPC3
Assay: MSD-based (ECL) cell binding assay on transfected SK-HEP-1 cells
reported_property: pEC50
# pEC50: negative log10 of molar concentration; output just the value

Q: Identify pEC50 associated with the binder lipocalin mutein of SEQ ID NO: 8 (designed binder, hNGAL (Lcn2) mutein; also called optimized GPC3 specific lipocalin mutein) QDSTSDLIPAPPLSKVPLQQNFQDNQFQGKWYVVGRAGNVGLREDKDPPKMWATIYELKEDKSYDVTNVRFARKKCLYSIGTFVPGSQPGEFTLGQIKSEPGNTANLVRVVSTNYNQHAMVFFKEVYQNREIFFIILYGRTKELTSELKENFIRFSKSLGLPENHIVFPVPIDQCIDGSAWSHPQFEK
Result: 8.64

Q: Identify pEC50 associated with the binder lipocalin mutein of SEQ ID NO: 5 (designed binder, hNGAL (Lcn2) mutein; also called optimized GPC3 specific lipocalin mutein) QDSTSDLIPAPPLSKVPLQQNFQDNQFQGKWYVVGVAGNALLREDKDPLKMRATIYELKEDKSYDVTVVSFWRKKCHYKIGTFVPGSQPGEFTLGDIKSGPGQTSNLVRVVSTNYNQHAMVFFKEVRQNREWFAITLYGRTKELTSELKENFIRFSKSLGLPENHIVFPVPIDQCIDGSAWSHPQFEK
Result: 7.47

Reference for the values: patent US20180141988A1
